# assay.details: Autoclave test of transference of the chemical from liquid water phase to steam phase at 200° C. (gas chromatography)
# Type: physicochemical
# experimental.parameters: autoclave 200° C., pH 11.5
# Procedure: Each 50 ml of samples were taken from the steam phase and from the liquid phase directly after the temperature had reached at 200° C., which were analyzed for the concentration of the chemical on a gas chromatography. The ratio of the concentration of chemical in the steam phase versus the concentration of chemical in the liquid phase was calculated.
quantity.kind: Conc. ratio Cs/Cw (concentration in the steam phase/concentration in liquid water phase)
Numbers only.

Some compounds with known Conc. ratio Cs/Cw (concentration in the steam phase/concentration in liquid water phase) results, for comparison:
{"compound": "CCCCCC1CCC(=O)O1 (centres unmarked)", "test.result": 1.10}
{"compound": "C=CCc1ccc(O)c(OC)c1", "test.result": 2.27}
{"compound": "CC=Cc1ccc(O)c(OC)c1", "test.result": 2.44}

Challenge: Tell me the measured Conc. ratio Cs/Cw (concentration in the steam phase/concentration in liquid water phase) of CCCCCCC1CCC(=O)O1 (centres unmarked) , please.
Response given: 0.64

Values were extracted from patent US6368552B1.
